# Experimental Protocol: Water solubility
# Format: physicochemical
# Test Parameters: Dihydrochlorid, pH = 5.3, read-out: Wasserlöslichkeit
Assay Metric: solubility

Compound | Assay Metric | Result
CN(C)CCc1ccc(Oc2ccc(C(=O)N=C(N)N)cc2C(F)(F)F)cc1 [Beispiel 21] | solubility | 49 mg/mL

###

# Target Desc: Na^+/H^+-Exchangers von Kaninchenerythrocyten (Oryctolagus cuniculus, UniProt P23791)
# Construct: den Na^+-Influx in die Erythrocyten via Na^+/H^+-Austausch flammenphotometrisch bestimmen zu können; endogenous in cells
# Sequence (P23791 whole entry): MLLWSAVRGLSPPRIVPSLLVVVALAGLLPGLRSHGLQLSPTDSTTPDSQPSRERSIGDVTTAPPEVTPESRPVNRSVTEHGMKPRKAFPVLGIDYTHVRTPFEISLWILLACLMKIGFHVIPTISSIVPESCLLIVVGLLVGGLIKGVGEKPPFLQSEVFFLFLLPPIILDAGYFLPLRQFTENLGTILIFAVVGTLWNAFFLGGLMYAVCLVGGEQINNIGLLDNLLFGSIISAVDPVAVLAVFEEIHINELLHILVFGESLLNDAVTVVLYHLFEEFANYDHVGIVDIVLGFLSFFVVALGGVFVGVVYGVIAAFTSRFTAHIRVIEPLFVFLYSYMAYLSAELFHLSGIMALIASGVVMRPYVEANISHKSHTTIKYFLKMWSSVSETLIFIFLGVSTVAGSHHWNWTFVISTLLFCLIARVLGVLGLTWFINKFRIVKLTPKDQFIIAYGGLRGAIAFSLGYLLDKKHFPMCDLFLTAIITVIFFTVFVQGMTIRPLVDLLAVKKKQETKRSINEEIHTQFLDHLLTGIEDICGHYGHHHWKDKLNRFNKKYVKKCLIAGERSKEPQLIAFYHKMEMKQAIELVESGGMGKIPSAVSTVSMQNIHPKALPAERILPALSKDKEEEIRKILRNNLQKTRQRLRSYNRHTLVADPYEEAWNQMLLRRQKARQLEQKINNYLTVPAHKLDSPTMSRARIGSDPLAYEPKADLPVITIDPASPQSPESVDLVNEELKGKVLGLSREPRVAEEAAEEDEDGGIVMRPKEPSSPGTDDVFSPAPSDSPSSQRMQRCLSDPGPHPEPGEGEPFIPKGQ
# Experimental Protocol: Inhibition of the Na+/H+ exchanger of rabbit erythrocytes (amiloride-sensitive Na+ influx, flame photometry)
# Test Parameters: Inhibition des Na^+/H^+-Exchangers; erythrocytes of cholesterol-fed rabbits, hyperosmolar salt-sucrose medium, pH 7,4, 37°C
pIC50: −log10 of the molar value.
Use y when the recorded pIC50 is no lower than 7; use n when it is lower.

Compound | Category
CN(C)CCN(C)S(=O)(=O)c1ccc(Oc2ccc(C(=O)N=C(N)N)cc2C(F)(F)F)cc1 | y
CN(C)CCSCc1ccc(Oc2ccc(C(=O)N=C(N)N)cc2C(F)(F)F)cc1 | y
CN(C)CCSCc1ccc(Oc2ccc(C(=O)N=C(N)N)cc2S(C)(=O)=O)cc1 | y
CN(C)CCSc1ccc(Oc2ccc(C(=O)N=C(N)N)cc2C(F)(F)F)cc1 | y
NC(N)=NC(=O)c1ccc(Oc2ccc(S(=O)(=O)NCCN3CCCC3)cc2)c(C(F)(F)F)c1 | n
CS(=O)(=O)c1cc(C(=O)N=C(N)N)ccc1Oc1ccc(C(O)Cn2ccnc2)cc1 (stereo not drawn) | n
CN(C)CCc1ccc(Oc2ccc(C(=O)N=C(N)N)cc2C(F)(F)F)cc1 | y
CN(C)CCCNS(=O)(=O)c1ccc(Oc2ccc(C(=O)N=C(N)N)cc2C(F)(F)F)cc1 | y
CN(C)CCNS(=O)(=O)c1ccc(Oc2ccc(C(=O)N=C(N)N)cc2C(F)(F)F)cc1 | y
CN(C)CCc1ccc(Oc2ccc(C(=O)N=C(N)N)cc2S(C)(=O)=O)cc1 | y
NC(N)=NC(=O)c1ccc(Oc2ccc(S(N)(=O)=O)cc2)c(C(F)(F)F)c1 | n
CN(C)CCS(=O)(=O)c1ccc(Oc2ccc(C(=O)N=C(N)N)cc2S(C)(=O)=O)cc1 | n
CS(=O)(=O)c1cc(C(=O)N=C(N)N)ccc1Oc1ccc(C(=O)N=C(N)N)cc1 | n
CS(=O)(=O)c1cc(C(=O)N=C(N)N)ccc1Oc1ccc(S(N)(=O)=O)cc1 | n

###

# Target Desc: Na^+/H^+-Exchangers von Kaninchenerythrocyten (Oryctolagus cuniculus)
# Construct: den Na^+-Influx in die Erythrocyten via Na^+/H^+-Austausch flammenphotometrisch bestimmen zu können; endogenous in cells
# Experimental Protocol: Inhibition of the Na+/H+ exchanger of rabbit erythrocytes (amiloride-sensitive Na+ influx, flame photometry)
# Test Parameters: Inhibition des Na^+/H^+-Exchangers; erythrocytes of cholesterol-fed rabbits, hyperosmolar salt-sucrose medium, pH 7,4, 37°C
# Source text: Inhibition des Na^+/H^+-Exchangers von Kaninchenerythrocyten Weiße Neuseeland-Kaninchen (Ivanovas) erhielten eine Standard-Diät mit 2 % Cholesterin für sechs Wochen, um den Na^+/H^+-Austausch zu aktivieren und so den Na^+-Influx in die Erythrocyten via Na^+/H^+-Austausch flammenphotometrisch bestimmen zu können. Das Blut wurde den Ohrarterien entnommen und durch 25 IE Kalium-Heparin ungerinnbar gemacht. Ein Teil jeder Probe wurde zur Doppelbestimmung des Hämatokrits durch Zentrifugieren benutzt. […]
pIC50: −log10 of the molar value.

Molecule | pIC50
CN=C(NC)SCC(=O)c1ccc(Oc2ccc(C(=O)N=C(N)N)cc2S(C)(=O)=O)cc1 [Beispiel 28] | 6.92
CN1CCN(S(=O)(=O)c2ccc(Oc3ccc(C(=O)N=C(N)N)cc3C(F)(F)F)cc2)CC1 [Beispiel 4] | 7.09
CN(C)CCSc1ccc(Oc2ccc(C(=O)N=C(N)N)cc2S(C)(=O)=O)cc1 [Beispiel 16] | 6.80
N=S(N)(=O)c1ccc(Oc2ccc(C(=O)N=C(N)N)cc2C(F)(F)F)cc1 (stereo not shown) [Beispiel 9] | 7.00
NC(N)=NC(=O)c1ccc(Oc2ccc(S(=O)(=O)NCCN3CCCCC3)cc2)c(C(F)(F)F)c1 [Beispiel 6] | 7.00
CN(C)CCS(=O)(=O)Cc1ccc(Oc2ccc(C(=O)N=C(N)N)cc2C(F)(F)F)cc1 [Beispiel 47] | 7.15
CN(C)CCS(=O)(=O)Cc1ccc(Oc2ccc(C(=O)N=C(N)N)cc2S(C)(=O)=O)cc1 [Beispiel 46] | 7.05

Data origin, for the record: patent EP0723956B1
